# Species: Rattus norvegicus
# assay notes: Open TG-GATES - Regimen: Daily Repeat
# Type: toxicity, organism-based, Sprague-Dawley
# Design: regimen Daily Repeat, gender Male, age 6 weeks
# measurement parameters: in vivo, po, 0 mg/kg, 72 h, tissue Plasma, route gavage, dose level Control, time 3 day
Some compounds, each annotated with its measured ALP.
Supply the numeric figure in IU/L, leaving out any unit text.

| compound | ALP [IU/L] |
| --- | --- |
| CCOC(=O)[C@H](CCc1ccccc1)N[C@@H](C)C(=O)N1CCC[C@H]1C(=O)O | 993.8 |
| O=C(O)Cc1ccccc1Nc1c(Cl)cccc1Cl | 974.8 |
| CC(CN1c2ccccc2Sc2ccccc21)N(C)C (stereo unspecified) | 1577 |
| CC(=O)Nc1nnc(S(N)(=O)=O)s1 [ACETAZOLAMIDE] | 1759.2 |
| C#C[C@]1(O)CC[C@H]2[C@@H]3CCC4=Cc5oncc5C[C@]4(C)[C@H]3CC[C@@]21C | 1436.8 |

Next compound, ALP to be filled in.
Query: // query ALP value for entry "Clc1c(Cl)c(Cl)c(Cl)c(Cl)c1Cl"
Result: 882.4

The measured values listed here are drawn from ChEMBL document CHEMBL3885861.
